B1: HDV Ribozyme (parent)
chain: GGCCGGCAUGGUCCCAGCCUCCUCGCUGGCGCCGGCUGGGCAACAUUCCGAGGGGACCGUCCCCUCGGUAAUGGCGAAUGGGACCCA

variants of: B1; assay: self-cleavage, relative activity (ratio to wild type); higher = more cleavage; co-transcriptional
QUANTITY KIND: self-cleavage
Reply with the value as a number alone.

Below, each entry is followed by its recorded self-cleavage result.
RESIDUE CHANGE | ENDPOINT RESULT
C63G G80A | 0.366
G10C C18U | 0.396
C3G A51G | 0.746
A16U G40C | 0.365
A51C G59C | 0.807

Could you share which self-cleavage value was measured for C22A C24G ?
0

How about this variant: C62U C86U
0.845

Now the same for U12G A43U
0.0639

Try this variant next: U27G G39U
0.222

Same for C66U U79G
0.453

Next record, please: C13G C14G
0.166

Here is the next variant: U27A A70G
0.987

Proceed to C64A U79A
0.796

Now consider C7U G82C and answer again.
0.227

# credit: the RNAGym collection of RNA variant scans (doi:10.7554/elife.80360)
